Provide the reported MIC of each item.
system: Mycoplasma gallisepticum 29C; assay: MIC, conventional broth-dilution microtiter test (Table IV); assay type: cell-based; details: Mycoplasmoides gallisepticum, 29C

For orientation, consider the following solved cases.
[[record]]
molecule = "CCC1OC(=O)CC(O)C(C)C(OC2OC(C)C(O)C(N(C)C)C2O)C(CC=O)CC(C)C(=O)C=CC(C)=CC1CN1CCCC2CCCCC21 (stereo not drawn) [Compound 20, 23-deoxy-23-(decahydroquinolin-1-yl)-OMT]"
assayed_system = "Mycoplasma gallisepticum 29C"
measured_value = "> 0.048 µg/mL"

[[record]]
molecule = "CCC1OC(=O)CC(O)C(C)C(OC2OC(C)C(O)C(N(C)C)C2O)C(CC=O)CC(C)C(=O)C=CC(C)=CC1CN1CC2(C)CC1CC(C)(C)C2 (stereo not drawn)"
assayed_system = "Mycoplasma gallisepticum 29C"
measured_value = "< 0.048 µg/mL"


Attention now turns to another entry.
Quick note, MIC for CCC1OC(=O)CC(O)C(C)C(OC2OC(C)C(O)C(N(C)C)C2O)C(CC=O)CC(C)C(=O)C=CC(C)=CC1CN1CC2CCC(CC2)C1 (stereo not drawn) [Compound 17, 23-(3-azabicyclo[3.2.2]nonan-3-yl)-OMT] landed at < 0.048 µg/mL

Recorded values, source patent US4604380A.
